- assay.summary: Stability in human serum assessed as half-life at 1 mM by HPLC analysis
- Assay type: ADME, cell-free
reported.property: half-life at 1000 µM

Problem: Consider the substance shown here: H-FLPIIKWVKKFFWRWR-OH What is its recorded half-life at 1000 µM?
Result: ~24 h

----------
- assay.summary: Cytotoxicity against human WI-38 cells assessed as cell viability at 25 uM incubated for 24 hrs by MTT assay relative to control
- Type: toxicity, cell-based
- conditions.used: read-out: Activity
reported.property: viability at 24 h, 25 µM (%)
The answer is to be given in %; state only the numeric part.

Problem: Find the recorded viability at 24 h, 25 µM belonging to H-FLPIIKWVKKFFWRWR-OH and report it.
Result: 88.3

Attribution: ChEMBL document CHEMBL5360649
